Hello, the source for this data is the kinase profiling compilation of Christmann-Franck et al. (2016), in case you need it.

# TARGET_OF_ASSAY: MAP3K7 (human) (UniProt O43318)
# Sequence (O43318 whole entry, looked up): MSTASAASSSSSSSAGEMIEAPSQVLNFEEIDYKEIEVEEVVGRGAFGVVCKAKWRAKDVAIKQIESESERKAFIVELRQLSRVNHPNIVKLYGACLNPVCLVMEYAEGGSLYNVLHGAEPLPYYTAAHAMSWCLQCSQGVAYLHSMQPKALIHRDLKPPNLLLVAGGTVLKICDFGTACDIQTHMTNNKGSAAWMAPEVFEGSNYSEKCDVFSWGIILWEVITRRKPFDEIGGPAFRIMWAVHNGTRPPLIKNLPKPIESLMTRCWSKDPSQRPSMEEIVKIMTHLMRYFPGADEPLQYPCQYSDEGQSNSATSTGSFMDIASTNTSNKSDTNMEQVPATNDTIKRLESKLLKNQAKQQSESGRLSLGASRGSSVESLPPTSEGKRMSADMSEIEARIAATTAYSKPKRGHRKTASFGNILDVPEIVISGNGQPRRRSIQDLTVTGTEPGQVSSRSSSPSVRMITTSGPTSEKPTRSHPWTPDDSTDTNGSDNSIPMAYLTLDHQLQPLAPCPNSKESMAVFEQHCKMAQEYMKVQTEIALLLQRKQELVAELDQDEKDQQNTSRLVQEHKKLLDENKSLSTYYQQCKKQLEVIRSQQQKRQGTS
# RUN_DESCRIPTION: KINOMEscan competition binding
# MEASUREMENT_CONDITIONS: compound 10.0 µM
// reported kinase still bound, per cent of control for each item listed
OUTCOME_MEASURE: kinase still bound, per cent of control (%)

1) N#Cc1cc(-c2ccnc(Nc3ccc(-n4cnc(-c5cccnc5)n4)cc3)n2)cc(N2CCOCC2)c1; 15
2) COc1cc(N2CCC(C(N)=O)CC2)ccc1Nc1nc(N)c(Cl)c(Nc2ccccc2S(=O)(=O)C(C)C)n1; 100
3) CCCS(=O)(=O)Nc1ccc(F)c(C(=O)c2c[nH]c3ncc(Cl)cc23)c1F; 51
4) CNC(=O)Nc1ccc(-c2nc(N3CC4CCC(C3)O4)c3cnn(C4CCC5(CC4)OCCO5)c3n2)cc1; 98
5) Cc1cn(-c2cc(C(=O)Nc3ccc(C)c(NC(=O)c4ccno4)c3)cc(C(F)(F)F)c2)cn1; 100
6) CCN(CCO)CCCOc1ccc2c(Nc3cc(CC(=O)Nc4cccc(F)c4)[nH]n3)ncnc2c1; 16
7) CC1=C(C(=O)Nc2cc3cn[nH]c3cc2F)C(c2ccc(C(F)(F)F)cc2)CC(=O)N1 (stereo not drawn); 78
8) COc1cc(C)c(Sc2cnc(NC(=O)c3ccc(CNC(C)C(C)C)cc3)s2)cc1C(=O)N1CCN(C(C)=O)CC1 (stereo not drawn); 100

###

# TARGET_OF_ASSAY: FRK (human) (UniProt P42685)
# Sequence (P42685 whole entry, looked up): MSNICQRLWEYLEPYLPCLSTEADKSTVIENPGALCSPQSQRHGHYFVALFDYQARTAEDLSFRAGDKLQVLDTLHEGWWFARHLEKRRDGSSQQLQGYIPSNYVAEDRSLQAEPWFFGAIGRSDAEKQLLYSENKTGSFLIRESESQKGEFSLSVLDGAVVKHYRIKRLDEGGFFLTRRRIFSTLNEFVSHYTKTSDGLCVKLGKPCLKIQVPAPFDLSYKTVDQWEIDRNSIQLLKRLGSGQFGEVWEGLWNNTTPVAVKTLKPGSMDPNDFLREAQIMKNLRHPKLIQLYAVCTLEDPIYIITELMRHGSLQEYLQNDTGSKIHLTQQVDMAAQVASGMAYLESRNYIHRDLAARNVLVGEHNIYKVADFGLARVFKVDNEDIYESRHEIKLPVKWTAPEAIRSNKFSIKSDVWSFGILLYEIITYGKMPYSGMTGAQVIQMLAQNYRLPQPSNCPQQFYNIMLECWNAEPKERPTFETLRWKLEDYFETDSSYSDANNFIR
# RUN_DESCRIPTION: KINOMEscan competition binding
# MEASUREMENT_CONDITIONS: compound 10.0 µM
Output condition met for records whose kinase still bound, per cent of control is lower than 50%, condition not met for records at or above 50%.

1) Cc1cn(-c2cc(C(=O)Nc3ccc(C)c(NC(=O)c4ccno4)c3)cc(C(F)(F)F)c2)cn1; condition met
2) CCN1CCN(Cc2ccc(NC(=O)c3ccc(C)c(/C=C/c4cnc5[nH]ccc5c4OC)c3)cc2C(F)(F)F)CC1; condition met
3) COc1cc(C)c(Sc2cnc(NC(=O)c3ccc(CNC(C)C(C)C)cc3)s2)cc1C(=O)N1CCN(C(C)=O)CC1 (configuration not stated); condition not met
4) COc1cc2c(Nc3ccc(NC(=O)c4ccccc4)cc3)ncnc2cc1OCCCN1CCOCC1; condition not met
5) CCCS(=O)(=O)Nc1ccc(F)c(C(=O)c2c[nH]c3ncc(Cl)cc23)c1F; condition met
6) O=c1[nH]c2ccccc2n1C1CCN(Cc2ccc(-c3nc4cc5[nH]cnc5cc4nc3-c3ccccc3)cc2)CC1; condition not met
7) COc1cc2ncnc(Nc3cccc(Cl)c3)c2cc1OC; condition met
8) N#C/C(=C1/Nc2ccccc2S1)c1ccnc(NCCc2cccnc2)n1; condition not met
9) C=CC(=O)Nc1ccc(C(=O)c2sc(Nc3ccc(N4CCN(C)CC4)cc3OC)nc2N)cc1; condition met
10) CC1=C(C(=O)Nc2cc3cn[nH]c3cc2F)C(c2ccc(C(F)(F)F)cc2)CC(=O)N1 (configuration not stated); condition not met
11) COc1cc(N2CCC(C(N)=O)CC2)ccc1Nc1nc(N)c(Cl)c(Nc2ccccc2S(=O)(=O)C(C)C)n1; condition met
12) N#Cc1cc(-c2ccnc(Nc3ccc(-n4cnc(-c5cccnc5)n4)cc3)n2)cc(N2CCOCC2)c1; condition not met
13) CCc1nc(-c2cccc(C)c2)c(-c2ccnc(NC(=O)c3ccccc3)c2)s1; condition met
14) CCOc1cc(N2CCC(O)CC2)ccc1Nc1ncc2c(n1)N(C)c1ccccc1C(=O)N2C; condition not met
15) CCN(CCO)CCCOc1ccc2c(Nc3cc(CC(=O)Nc4cccc(F)c4)[nH]n3)ncnc2c1; condition not met
16) CNC(=O)Nc1ccc(-c2nc(N3CC4CCC(C3)O4)c3cnn(C4CCC5(CC4)OCCO5)c3n2)cc1; condition not met
17) COc1ccc(N(C(=O)Oc2cc(C(=O)Nc3cccc(C(F)(F)F)c3)ccc2C)c2ccnc(Nc3ccc(N4CCN(C)CC4)cc3)n2)c(OC)c1; condition met

###

# TARGET_OF_ASSAY: PRKG2 (human) (UniProt Q13237)
# Sequence (Q13237 whole entry, looked up): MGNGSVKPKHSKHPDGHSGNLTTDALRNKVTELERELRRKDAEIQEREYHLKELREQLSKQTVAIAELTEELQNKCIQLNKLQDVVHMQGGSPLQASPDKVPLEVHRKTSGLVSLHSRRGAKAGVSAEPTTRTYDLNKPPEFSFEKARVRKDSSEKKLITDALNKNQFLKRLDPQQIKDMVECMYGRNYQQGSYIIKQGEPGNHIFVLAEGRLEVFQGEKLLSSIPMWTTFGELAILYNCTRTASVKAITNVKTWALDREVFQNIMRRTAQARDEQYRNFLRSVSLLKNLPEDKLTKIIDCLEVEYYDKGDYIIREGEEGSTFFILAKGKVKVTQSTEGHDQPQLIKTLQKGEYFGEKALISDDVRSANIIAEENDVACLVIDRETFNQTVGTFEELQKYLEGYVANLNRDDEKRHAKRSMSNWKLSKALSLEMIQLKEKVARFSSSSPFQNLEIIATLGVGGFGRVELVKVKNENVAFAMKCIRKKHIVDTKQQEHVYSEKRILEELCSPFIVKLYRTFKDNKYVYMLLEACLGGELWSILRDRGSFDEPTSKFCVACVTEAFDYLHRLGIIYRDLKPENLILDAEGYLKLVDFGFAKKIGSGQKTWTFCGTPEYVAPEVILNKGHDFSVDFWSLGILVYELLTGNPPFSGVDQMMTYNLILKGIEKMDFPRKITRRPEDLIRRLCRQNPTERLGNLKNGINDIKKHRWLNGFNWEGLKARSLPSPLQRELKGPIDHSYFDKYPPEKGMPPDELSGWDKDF
# RUN_DESCRIPTION: KINOMEscan competition binding
# MEASUREMENT_CONDITIONS: compound 10.0 µM
// reported kinase still bound, per cent of control for each item listed
OUTCOME_MEASURE: kinase still bound, per cent of control (%)

1. COc1cc2ncnc(Nc3cccc(Cl)c3)c2cc1OC; 82
2. CCCS(=O)(=O)Nc1ccc(F)c(C(=O)c2c[nH]c3ncc(Cl)cc23)c1F; 93
3. CCOc1cc(N2CCC(O)CC2)ccc1Nc1ncc2c(n1)N(C)c1ccccc1C(=O)N2C; 100
4. CCN(CCO)CCCOc1ccc2c(Nc3cc(CC(=O)Nc4cccc(F)c4)[nH]n3)ncnc2c1; 92
5. N#C/C(=C1/Nc2ccccc2S1)c1ccnc(NCCc2cccnc2)n1; 81
6. CCc1nc(-c2cccc(C)c2)c(-c2ccnc(NC(=O)c3ccccc3)c2)s1; 100

###

# TARGET_OF_ASSAY: MLTK (human)
# RUN_DESCRIPTION: KINOMEscan competition binding
# MEASUREMENT_CONDITIONS: compound 10.0 µM
Output t for records whose kinase still bound, per cent of control is lower than 90%, f for records at or above 90%.

1. COc1ccc(N(C(=O)Oc2cc(C(=O)Nc3cccc(C(F)(F)F)c3)ccc2C)c2ccnc(Nc3ccc(N4CCN(C)CC4)cc3)n2)c(OC)c1; t
2. CCN(CCO)CCCOc1ccc2c(Nc3cc(CC(=O)Nc4cccc(F)c4)[nH]n3)ncnc2c1; t
3. N#C/C(=C1/Nc2ccccc2S1)c1ccnc(NCCc2cccnc2)n1; f
4. CCc1nc(-c2cccc(C)c2)c(-c2ccnc(NC(=O)c3ccccc3)c2)s1; t
5. COc1cc(N2CCC(C(N)=O)CC2)ccc1Nc1nc(N)c(Cl)c(Nc2ccccc2S(=O)(=O)C(C)C)n1; f
6. CCOc1cc(N2CCC(O)CC2)ccc1Nc1ncc2c(n1)N(C)c1ccccc1C(=O)N2C; f
7. CCCS(=O)(=O)Nc1ccc(F)c(C(=O)c2c[nH]c3ncc(Cl)cc23)c1F; t
8. CNC(=O)Nc1ccc(-c2nc(N3CC4CCC(C3)O4)c3cnn(C4CCC5(CC4)OCCO5)c3n2)cc1; t

###

# Test system: EGFR (human), P00533 [G719C]
# RUN_DESCRIPTION: KINOMEscan competition binding
# MEASUREMENT_CONDITIONS: compound 10.0 µM
Labels assigned by kinase still bound, per cent of control range: A: < 70%; B: ≥ 70% and < 90%; C: ≥ 90%

1) O=C1NC(=O)/C(=C/c2ccc3nccc(-c4ccncc4)c3c2)S1; A
2) O=C(NC1CC1)c1cccc(-c2ccc3c(NC(=O)C4CC4)n[nH]c3c2)c1; B
3) COc1cc(C)c(Sc2cnc(NC(=O)c3ccc(CNC(C)C(C)C)cc3)s2)cc1C(=O)N1CCN(C(C)=O)CC1 (centres undefined); C
4) C=CC(=O)Nc1cccc(Nc2nc(N[C@H]3CC[C@H](N(C)C)CC3)nc3c2ncn3C(C)C)c1; B
5) CC1=C(C(=O)Nc2cc3cn[nH]c3cc2F)C(c2ccc(C(F)(F)F)cc2)CC(=O)N1 (centres undefined); A
6) Cc1cc([C@@H](C)Nc2ccccc2C(=O)O)c2nc(N3CCOCC3)cc(=O)n2c1; C
7) O=C(NOC[C@H](O)CO)c1ccc(F)c(F)c1Nc1ccc(I)cc1F; B
8) O=C1Nc2ccc(I)cc2/C1=C/c1cc(Br)c(O)c(Br)c1; B
9) O=C(O)c1ccc(Nc2ncc3c(n2)-c2ccc(Cl)cc2C(c2c(F)cccc2F)=NC3)cc1; B

###

// reported kinase still bound, per cent of control for each item listed
# TARGET_OF_ASSAY: UniProt O15197
# Sequence (O15197 whole entry, looked up): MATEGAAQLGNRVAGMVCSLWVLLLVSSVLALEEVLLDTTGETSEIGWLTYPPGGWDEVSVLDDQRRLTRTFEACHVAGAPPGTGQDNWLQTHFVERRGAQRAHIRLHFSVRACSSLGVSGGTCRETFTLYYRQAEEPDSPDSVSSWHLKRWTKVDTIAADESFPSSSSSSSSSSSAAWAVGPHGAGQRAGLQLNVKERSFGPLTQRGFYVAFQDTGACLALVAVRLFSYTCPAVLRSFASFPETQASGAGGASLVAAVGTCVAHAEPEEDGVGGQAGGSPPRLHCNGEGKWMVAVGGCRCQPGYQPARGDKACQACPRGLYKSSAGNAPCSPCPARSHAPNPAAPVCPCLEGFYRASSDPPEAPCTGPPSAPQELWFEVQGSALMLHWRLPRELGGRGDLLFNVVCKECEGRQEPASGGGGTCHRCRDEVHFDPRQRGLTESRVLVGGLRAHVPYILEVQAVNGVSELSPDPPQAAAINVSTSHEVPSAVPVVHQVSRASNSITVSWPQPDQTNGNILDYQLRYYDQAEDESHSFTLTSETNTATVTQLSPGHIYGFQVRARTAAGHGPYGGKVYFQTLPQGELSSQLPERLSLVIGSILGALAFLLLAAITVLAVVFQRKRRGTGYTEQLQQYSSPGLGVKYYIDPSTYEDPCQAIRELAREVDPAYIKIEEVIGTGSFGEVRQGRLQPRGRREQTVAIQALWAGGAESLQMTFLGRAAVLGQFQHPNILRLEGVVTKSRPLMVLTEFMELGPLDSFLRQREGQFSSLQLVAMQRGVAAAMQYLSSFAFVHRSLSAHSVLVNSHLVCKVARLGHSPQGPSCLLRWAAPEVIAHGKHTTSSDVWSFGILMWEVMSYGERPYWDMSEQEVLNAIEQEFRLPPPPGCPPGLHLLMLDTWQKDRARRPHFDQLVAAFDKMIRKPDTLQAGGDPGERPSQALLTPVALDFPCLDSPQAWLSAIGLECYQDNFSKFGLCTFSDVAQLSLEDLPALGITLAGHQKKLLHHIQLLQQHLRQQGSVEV
# RUN_DESCRIPTION: KINOMEscan competition binding
# MEASUREMENT_CONDITIONS: compound 10.0 µM
OUTCOME_MEASURE: kinase still bound, per cent of control (%)

1. CCN1CCN(Cc2ccc(NC(=O)c3ccc(C)c(/C=C/c4cnc5[nH]ccc5c4OC)c3)cc2C(F)(F)F)CC1; 1.8
2. CCOc1cc(N2CCC(O)CC2)ccc1Nc1ncc2c(n1)N(C)c1ccccc1C(=O)N2C; 100
3. O=c1[nH]c2ccccc2n1C1CCN(Cc2ccc(-c3nc4cc5[nH]cnc5cc4nc3-c3ccccc3)cc2)CC1; 69
4. N#C/C(=C1/Nc2ccccc2S1)c1ccnc(NCCc2cccnc2)n1; 3.2
5. CCCS(=O)(=O)Nc1ccc(F)c(C(=O)c2c[nH]c3ncc(Cl)cc23)c1F; 3.6
6. CNC(=O)Nc1ccc(-c2nc(N3CC4CCC(C3)O4)c3cnn(C4CCC5(CC4)OCCO5)c3n2)cc1; 83

###

# TARGET_OF_ASSAY: LYN (human)
# RUN_DESCRIPTION: KINOMEscan competition binding
# MEASUREMENT_CONDITIONS: compound 10.0 µM
OUTCOME_MEASURE: kinase still bound, per cent of control (%)

1. CCc1nc(-c2cccc(C)c2)c(-c2ccnc(NC(=O)c3ccccc3)c2)s1; 54
2. CCN(CCO)CCCOc1ccc2c(Nc3cc(CC(=O)Nc4cccc(F)c4)[nH]n3)ncnc2c1; 18
3. C=CC(=O)Nc1ccc(C(=O)c2sc(Nc3ccc(N4CCN(C)CC4)cc3OC)nc2N)cc1; 100
4. CNC(=O)Nc1ccc(-c2nc(N3CC4CCC(C3)O4)c3cnn(C4CCC5(CC4)OCCO5)c3n2)cc1; 85
5. N#Cc1cc(-c2ccnc(Nc3ccc(-n4cnc(-c5cccnc5)n4)cc3)n2)cc(N2CCOCC2)c1; 78
